# System name: hERG (Homo sapiens)
# Construct: purchased ThermoFisher Scientific PV5365
# Sequence (Q12809 whole entry): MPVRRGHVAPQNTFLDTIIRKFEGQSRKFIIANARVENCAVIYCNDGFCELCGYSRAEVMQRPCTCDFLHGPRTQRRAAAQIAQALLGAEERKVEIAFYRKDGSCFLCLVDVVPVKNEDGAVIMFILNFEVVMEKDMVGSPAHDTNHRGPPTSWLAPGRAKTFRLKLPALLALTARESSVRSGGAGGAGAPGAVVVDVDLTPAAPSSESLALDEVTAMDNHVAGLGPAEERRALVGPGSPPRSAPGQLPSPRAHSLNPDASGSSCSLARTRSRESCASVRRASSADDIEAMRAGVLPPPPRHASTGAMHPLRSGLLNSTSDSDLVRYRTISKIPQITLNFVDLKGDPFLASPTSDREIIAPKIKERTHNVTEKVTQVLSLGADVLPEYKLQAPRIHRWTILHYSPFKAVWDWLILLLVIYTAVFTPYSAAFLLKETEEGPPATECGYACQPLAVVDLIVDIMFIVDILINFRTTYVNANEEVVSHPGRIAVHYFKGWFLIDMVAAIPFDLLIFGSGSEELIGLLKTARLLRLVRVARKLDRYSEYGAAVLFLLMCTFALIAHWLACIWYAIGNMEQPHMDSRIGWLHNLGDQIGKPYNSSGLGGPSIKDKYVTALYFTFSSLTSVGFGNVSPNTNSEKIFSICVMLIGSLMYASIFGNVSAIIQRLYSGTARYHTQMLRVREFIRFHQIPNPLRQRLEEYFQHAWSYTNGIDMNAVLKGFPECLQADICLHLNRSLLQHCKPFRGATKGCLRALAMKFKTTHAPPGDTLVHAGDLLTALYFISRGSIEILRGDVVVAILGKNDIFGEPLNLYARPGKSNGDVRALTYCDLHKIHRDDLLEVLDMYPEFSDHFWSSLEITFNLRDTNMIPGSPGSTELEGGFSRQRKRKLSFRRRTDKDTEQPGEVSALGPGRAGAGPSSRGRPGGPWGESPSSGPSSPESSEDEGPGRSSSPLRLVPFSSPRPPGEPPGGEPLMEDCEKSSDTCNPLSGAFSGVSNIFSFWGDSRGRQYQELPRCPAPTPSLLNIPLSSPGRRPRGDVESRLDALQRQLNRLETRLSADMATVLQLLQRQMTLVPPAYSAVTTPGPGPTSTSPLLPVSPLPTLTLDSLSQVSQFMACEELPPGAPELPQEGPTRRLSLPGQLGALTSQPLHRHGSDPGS
# Measurement notes: hERG test (Predictor hERG Fluorescence Polarization Assay Kit)
# Assay type: binding
# Applied conditions: herg membrane fluorescence polarization, 10 µM test substance, three duplicate wells
This listing pairs molecules with measured inhibition at 3.5 h, 10 µM.
Give just the numeric value; % need not be written.

CN(C(=O)c1cc2c(cc1F)nc(N)c1cnn(C)c12)[C@@H]1COc2cc(C#Cc3cnn(C)c3)ccc21; 27.7

Now look at this one.
// query # get_value(readout='inhibition at 3.5 h, 10 µM', item= Cn1ncc(-c2ccc3c(=O)[nH]nc(CN)c3c2)c1-c1c(F)c(Cl)cc(OC2CC2)c1C#N (atropisomer, axis not shown) [Reference Example 6, reference compound] )
// result 77.4
